molecular target: Cellular tumor antigen p53 (Homo sapiens); experiment: Primary qHTS for small molecule compounds that upregulate eGFP-tagged delta133p53alpha (in N-terminal) cells. (AID 2060322); details: NCI-H358 eGFP-delta133p53alpha fluorescence, 24 h; hits give high values;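 also: cells pre-induced with doxycycline then dosed without doxycycline; series mostly up to about 56 µM; 0% = DMSO vehicle and 100% = reference activator; nearly all actives have a fitted effect of over 75% in size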
Records with an inconclusive call do not appear.
TEST_READOUT: activation (%)

INSERT INTO assay_data (compound, test_readout, obs_value) VALUES
  ('N#Cc1ccc(C2CCCc3cncn32)cc1 (stereo unspecified)', 'activation', -5),
  ('COc1cc2c(cc1NS(=O)(=O)c1ccc(Br)cc1C)n(C)c(=O)n2C', 'activation', -22.3),
  ('NC(=O)c1noc([C@H](CCCC2CCCCC2)CC(=O)NO)n1', 'activation', -7.14),
  ('CCCCCCOc1cc2c(cc1N(C)c1ncc(C(=O)O)cn1)C(C)(C)CCC2(C)C', 'activation', -3.82),
  ('CCC(=O)Nc1ccc(O)cc1', 'activation', -18.6),
  ('NC(=O)NS(=O)(=O)c1ccc(Cl)cc1', 'activation', 1.69);

====

target: Cellular tumor antigen p53 (Homo sapiens) (UniProt P04637); test: Primary qHTS for small molecule compounds that upregulate eGFP-tagged delta133p53alpha (in N-terminal) cells. (AID 2060322); settings: NCI-H358 eGFP-delta133p53alpha fluorescence, 24 h; hits give high values;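 also: cells pre-induced with doxycycline then dosed without doxycycline; series mostly up to about 56 µM; 0% = DMSO vehicle and 100% = reference activator; nearly all actives have a fitted effect of over 75% in size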
Sequence (P04637 whole entry, looked up): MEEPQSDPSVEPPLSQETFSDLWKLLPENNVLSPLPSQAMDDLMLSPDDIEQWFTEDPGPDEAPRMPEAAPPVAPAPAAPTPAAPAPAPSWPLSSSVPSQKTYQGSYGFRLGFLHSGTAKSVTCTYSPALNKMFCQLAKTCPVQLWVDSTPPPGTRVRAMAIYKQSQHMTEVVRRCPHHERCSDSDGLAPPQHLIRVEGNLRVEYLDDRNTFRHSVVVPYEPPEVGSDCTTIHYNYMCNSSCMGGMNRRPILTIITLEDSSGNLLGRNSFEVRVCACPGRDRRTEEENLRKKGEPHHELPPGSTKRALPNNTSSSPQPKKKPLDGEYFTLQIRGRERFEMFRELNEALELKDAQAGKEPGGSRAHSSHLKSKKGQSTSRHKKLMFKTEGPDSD
Inconclusive results are not listed. Calls of active or inactive are those of the source. Calls follow the shape of the dose curve; as a rule, active = well fitted activation curve with a large enough effect; inconclusive = small, poorly fitted or top-dose-only effect; inactive = no such curve, though single readings can be large or run the other way.
TEST_READOUT: activation

INSERT INTO results (compound, obs_value) VALUES
  ('C=C1/C(=C/C=C2\CCC[C@]3(C)[C@@H]([C@H](C)CC[C@@H](O)C(C)(C)O)CC[C@@H]23)C[C@@H](O)C[C@@H]1O', '10.3% (inactive)'),
  ('N#Cc1ccc(-c2csc(NN=C3CCCC3)n2)cc1', '-8.94% (inactive)'),
  ('CC[C@H]1OC(=O)[C@H](C)C(=O)[C@H](C)[C@@H](O[C@H]2O[C@H](C)C[C@H](N(C)C)[C@@H]2O)[C@](C)(OC)C[C@@H](C)C(=O)[C@H](C)[C@H]2N(CCCCn3cnc(-c4cccnc4)c3)C(=O)O[C@]12C', '1.46% (inactive)'),
  ('Cn1cc(-c2ccc3nnc(Sc4ccc5ncccc5c4)n3n2)cn1', '-0.663% (inactive)'),
  ('CC1(C)CC[C@]2(C(=O)O)CC[C@]3(C)C(=CCC4[C@@]5(C)C(=O)C[C@H](O)[C@@](C)(CO)C5CC[C@]43C)[C@@H]2C1 (stereo partly drawn)', '-11.5% (inactive)'),
  ('CC(C)(C)OC(=O)CN(Cc1ccc(Cl)cc1)Cc1ccc([N+](=O)[O-])s1', '-41.8% (inactive)'),
  ('COc1cc(C(=O)NC2CCN(C)CC2)ccc1Nc1ncc2c(n1)N(C1CCCC1)CC(F)(F)C(=O)N2C', '29.5% (inactive)'),
  ('CC(=O)OCC(=O)[C@@]1(O)CC[C@H]2[C@@H]3CCC4=CC(=O)C=C[C@]4(C)[C@@]3(F)[C@@H](O)C[C@@]21C', '-10.7% (inactive)'),
  ('CC(=O)N(CC(=O)N(C)C)c1ccccc1', '-7.53% (inactive)'),
  ('CCOc1ccc(C(Nc2ccccn2)c2ccc3ccc(C)nc3c2O)cc1C (stereo not drawn)', '19.6% (inactive)'),
  ('COC(=O)C1(Cc2ccc(O)cc2)OC(=O)C(OC)=C1c1ccc(O)cc1 (stereo not drawn)', '-7.63% (inactive)'),
  ('CC(=C\C(C)O)/C=C(\C)C(=O)CC1CC(CC(N)=O)CC(=O)O1 (stereo not drawn)', '-16.8% (inactive)'),
  ('CCOC(=O)c1ccnc(CNCC(=O)N(CC)CCN(C)C)c1', '8.33% (inactive)'),
  ('CC1(CO)CCCC2(C)C3COC(=O)C3=CC(O)C12 (stereo not drawn)', '-8.04% (inactive)'),
  ('CNc1cccc(CCOc2ccc3c(c2)CN(CC(F)(F)F)C(=O)[C@H](CC(=O)O)C3)n1', '2.86% (inactive)'),
  ('CC(=O)OCC1OC(O[C@H]2CC[C@]34C[C@]35CC(O)[C@]3(C)[C@@H]([C@H](C)CC/C=C(\C)C(=O)O)C(O)C[C@@]3(C)C5CC[C@H]4C2(C)C)C(O)C(O)C1OC1OCC(O)C(O)C1O (stereo partly drawn)', '-13% (inactive)'),
  ('NC(N)=N/N=C/c1c(Cl)cccc1Cl', '35% (inactive)'),
  ('CC1=C2CC3OC3(C)CCC3OC3(C)CC2OC1=O (stereo not drawn)', '9.82% (inactive)');
